Source: patent US20240116946A1

Each entry below carries its recorded pIC50.
# study target: recombinant SARS-CoV-2 Main protease (Mpro) (Severe acute respiratory syndrome coronavirus 2 (2019-nCoV) (SARS-CoV-2), UniProt P0DTD1)
# protocol details: Cov Mpro Biochemical IC50 Assay
# condition context: recombinant SARS-CoV-2 Mpro, fluorogenic peptide substrate; read-out: MPro IC50
Please treat pIC50 as minus the base-10 logarithm of the molar concentration.

Solved entries:
molecule: O=c1[nH]c2cc(-c3c(Cl)cccc3-c3cc(C(F)(F)F)c4ncnn4c3)ccc2c(=O)n1-c1cncc2ccccc12
measurement kind: pIC50
experimental value: 7.62
//
molecule: O=c1[nH]c2cc(-c3cc(OC(F)(F)F)ccc3Cl)ccc2c(=O)n1-c1cncc2ccccc12
measurement kind: pIC50
experimental value: 5.91
//
molecule: Cc1cc(-c2cccc(Cl)c2-c2ccc3c(=O)n(-c4cncc5ccccc45)c(=O)[nH]c3c2)cc(C)n1
measurement kind: pIC50
experimental value: 8.12

The molecule listed as O=c1[nH]c2cc(-c3ccccc3F)sc2c(=O)n1-c1cncc2ccccc12 has a reported pIC50 of 6.80

Query O=c1[nH]c2cc(-c3c(Cl)cccc3-c3cncc(F)c3)ccc2c(=O)n1-c1cncc2ccccc12 yields pIC50 of 7.75

// COc1cc2c(=O)n(-c3cncc4ccccc34)c(=O)[nH]c2cc1-c1ccccc1Cl : pIC50 value = 6.96

CN1C(=O)COc2cc(-c3cccc(Cl)c3-c3ccc4c(=O)n(-c5cncc6ccccc56)c(=O)[nH]c4c3)cnc21 yielded pIC50 of 8.05

# molecule O=c1c2sc(-c3ccccc3Cl)cc2n(CC2CCCC2)c(=O)n1-c1cncc2ccccc12 ; its pIC50 = 6.10

Notebook: Cn1cc2ccc(-c3cccc(Cl)c3-c3ccc4c(=O)n(-c5cncc6ccccc56)c(=O)[nH]c4c3)cc2n1 , pIC50 read as 7.06

Memo: O=c1[nH]c2cc(-c3c(Cl)cccc3-c3ccc4c(c3)OCCO4)sc2c(=O)n1-c1cncc2ccccc12 , reported pIC50: 7.34

The molecule CNC(=O)[C@H]1C[C@@H]1c1cncc(-n2c(=O)[nH]c3cc(-c4ccccc4Cl)sc3c2=O)c1 showed pIC50 equal to 8.28

The value of pIC50 measured for the molecule COc1ccc(Cl)c(-c2cc3[nH]c(=O)n(-c4cncc5ccc(N6CC7C(C6)C7(F)F)cc45)c(=O)c3s2)c1 (stereo not drawn) turned out to be 7.75

// sample O=c1[nH]c2cc(-c3cccnc3)sc2c(=O)n1-c1cncc2ccccc12 , its pIC50 was 6.47

pIC50 in this record for O=c1c2sc(-c3ccccc3Cl)cc2n(Cc2ccncc2)c(=O)n1-c1cncc2ccccc12 : 6.78

Kindly note the recorded pIC50 for O=c1[nH]c2cc(-c3c(Cl)cccc3-c3cncc(C(F)(F)F)c3)ccc2c(=O)n1-c1cncc2ccccc12 , which is 7.37

----------
# study target: recombinant SARS-CoV-2 Main protease (Mpro) (Severe acute respiratory syndrome coronavirus 2 (2019-nCoV) (SARS-CoV-2), UniProt P0DTD1)
# protocol details: Cov Mpro Biochemical IC50 Assay
# condition context: recombinant SARS-CoV-2 Mpro, fluorogenic peptide substrate; read-out: MPro IC50
measurement kind: IC50 (nM)
Field format: number, assumed nM, no unit text.

Reference set (2 entries):
mol: Cc1cncc(-c2cccc(Cl)c2-c2ccc3c(=O)n(-c4cncc5ccccc45)c(=O)[nH]c3c2)c1
value units: nM
IC50: 8.77
//
mol: O=c1[nH]c2cc(-c3cccc4c3CCC4)ccc2c(=O)n1-c1cncc2ccccc12
value units: nM
IC50: 3790

Data point: N#Cc1cc(F)c(F)cc1-c1ccc2c(=O)n(-c3cncc4ccccc34)c(=O)[nH]c2c1 ; IC50 = 112

Memo: Cc1n[nH]cc1-c1cccc(Cl)c1-c1ccc2c(=O)n(-c3cncc4ccccc34)c(=O)[nH]c2c1 , reported IC50: 79

Lab book: IC50 of COc1cnc(Cl)c(-c2cc3[nH]c(=O)n(-c4cncc(C5CC5)c4)c(=O)c3s2)c1 noted as 9.23

# IC50 of O=c1[nH]c2cc(-c3cccc4ccccc34)ccc2c(=O)n1-c1cncc2ccccc12 = 40100

# IC50 (molecule: Cc1cncc(-n2c(=O)[nH]c3cc(-c4ccccc4Cl)ccc3c2=O)c1OCC(F)(F)F ) is 1130

So for COc1cc(-c2ccc3c(=O)n(-c4cncc5ccccc45)c(=O)[nH]c3c2)c(C#N)cn1 , the logged IC50 turned out to be 290

The molecule O=c1[nH]c2cc(-c3ccccc3C3CC3)sc2c(=O)n1-c1cncc2ccccc12 showed IC50 equal to 164

Reported IC50 for COc1ccc(Cl)c(-c2cc3[nH]c(=O)n(-c4cncc(C5CC5)c4)c(=O)c3s2)c1 was 8.9

Record Cc1c(-c2cccc(Cl)c2-c2ccc3c(=O)n(-c4cncc5ccccc45)c(=O)[nH]c3c2)cn2ncnc2c1C , field IC50: 12.3

For reference, reported IC50 for O=c1[nH]c2cc(-c3ccccc3Cl)sc2c(=O)n1-c1cncc(C2CC2)c1 stands at 15

----------
The entries below come with measured pEC50 values attached.
# System: SARS-CoV-2-NLuc
# protocol details: microbe, parasite or virus in culture
# Type: cell-based, SARS Coronavirus 2
# condition context: Severe acute respiratory syndrome coronavirus, 48 h; read-out: MPro EC50
The quantity pEC50 is defined as the negative base-10 logarithm of the molar concentration.

Completed entries (count: 10):
mol: CC(=O)N1CC2(C1)CN(c1ccc3cncc(-n4c(=O)[nH]c5cc(-c6ccccc6Cl)sc5c4=O)c3c1)C2
experimental value: 6.87
--
mol: COc1ccc(Cl)c(-c2ccc3c(=O)n(-c4cncc5ccc(N6CC7(COCCO7)C6)cc45)c(=O)[nH]c3c2)c1
experimental value: 7.42
--
mol: Cc1cncc(-n2c(=O)c3sc(-c4cc(F)ccc4C#N)cc3n(CCC#N)c2=O)c1
experimental value: 7.04
--
mol: COc1cccc(Cl)c1-c1cnc2c(=O)n(-c3cncc4ccccc34)c(=O)[nH]c2c1
experimental value: 6.56
--
mol: Cc1cc(-c2cccc(Cl)c2-c2cc3[nH]c(=O)n(-c4cncc(C5CC5)c4)c(=O)c3s2)cnn1
experimental value: 6.85
--
mol: Cc1cnnc(-n2c(=O)c3sc(-c4ccccc4Cl)cc3n(CCC#N)c2=O)c1
experimental value: 7.55
--
mol: Cc1c(Cl)cncc1-n1c(=O)c2sc(-c3ccccc3Cl)cc2n(CCC#N)c1=O
experimental value: 7.47
--
mol: Cc1cncc(-n2c(=O)c3sc(-c4ccccc4Cl)cc3n(CCC#N)c2=O)c1
experimental value: 8.43
--
mol: Cn1ccc2cccc(-c3ccc4c(=O)n(-c5cncc6ccccc56)c(=O)[nH]c4c3)c21
experimental value: 5.42
--
mol: COc1ccc(Cl)c(-c2cc3[nH]c(=O)n(-c4cncc5ccc(N6CCN(S(C)(=O)=O)CC6)cc45)c(=O)c3s2)c1
experimental value: 7.52

Lab note: measured pEC50 of COc1cc(-c2cc3c(s2)c(=O)n(-c2cncc4ccccc24)c(=O)n3C)c(Cl)cc1F was 8.36

----------
# study target: recombinant SARS-CoV-2 Main protease (Mpro) (Severe acute respiratory syndrome coronavirus 2 (2019-nCoV) (SARS-CoV-2))
# protocol details: Cov Mpro Biochemical IC50 Assay
# condition context: recombinant SARS-CoV-2 Mpro 7.5 nM, fluorogenic peptide substrate 40 μM; read-out: MPro IC50
pIC50: −log10 of the molar value.
pIC50 of 8 or higher: criterion met. Under 8: criterion not met.

Solved cases below.
compound: COc1cc(-c2cc3c(s2)c(=O)n(-c2cncc(F)c2C)c(=O)n3CCC#N)c(Cl)cc1F (single isomer, unassigned) [Example 1027]
class label: criterion not met

compound: Cc1c(F)cncc1-n1c(=O)c2sc(-c3ccccc3C#N)cc2n(CCC#N)c1=O
class label: criterion not met

compound: COc1cnc(Cl)c(-c2cc3c(s2)c(=O)n(-c2cncc4ccccc24)c(=O)n3CCC#N)c1 (single isomer, unassigned) [Example 1088]
class label: criterion met

INPUT: pIC50 >= 8 for O=c1[nH]c2cc(-c3ccccc3Cl)sc2c(=O)n1-c1cncc2cccc(Cl)c12 ?
OUTPUT: criterion met

INPUT: Does Cn1ncc2cncc(-n3c(=O)c4sc(-c5cc(F)ccc5C#N)cc4n(CCC#N)c3=O)c21 have a reported pIC50 of at least 8?
OUTPUT: criterion not met

INPUT: Does the compound CCn1c(C)nc2cncc(-n3c(=O)c4sc(-c5cc(OC)c(F)cc5Cl)cc4n(CCC#N)c3=O)c21 have recorded pIC50 that is 8 or more?
OUTPUT: criterion met

----------
# study target: recombinant SARS-CoV-2 Main protease (Mpro) (Severe acute respiratory syndrome coronavirus 2 (2019-nCoV) (SARS-CoV-2))
# protocol details: Cov Mpro Biochemical IC50 Assay
# condition context: recombinant SARS-CoV-2 Mpro 7.5 nM, fluorogenic peptide substrate 40 μM; read-out: MPro IC50
measurement kind: pIC50
Just the number, please; pIC50 means minus log10 of the concentration in mol/L.

Please review the entries below; each comes with its answer.
compound: COc1ccc(Cl)c(-c2cc3[nH]c(=O)n(-c4cncc5ccc(N6CCOCC6=O)cc45)c(=O)c3s2)c1 [Example 573]
measurement kind: pIC50
experimental value: 8.49

compound: COc1ccc(Cl)c(-c2cc3[nH]c(=O)n(-c4cncc5nc(C67CC(F)(C6)C7)n(C)c45)c(=O)c3s2)c1 [Example 436]
measurement kind: pIC50
experimental value: 6.79

compound: Cc1c(Cl)cncc1-n1c(=O)c2sc(-c3ccccc3C#N)cc2n(CCC#N)c1=O [Example 846]
measurement kind: pIC50
experimental value: 7.90

compound: COc1cc(-c2cc3[nH]c(=O)n(-c4cncc5cnn(C)c45)c(=O)c3s2)c(C)cc1Cl [Example 666]
measurement kind: pIC50
experimental value: 7.62

compound: Cc1c(Cl)cncc1-n1c(=O)c2sc(-c3ccc(F)cc3C#N)cc2n(CCC#N)c1=O [Example 808]
measurement kind: pIC50
experimental value: 7.13

compound: Cc1cc(Cl)c(-c2cc3[nH]c(=O)n(-c4cncc5ccccc45)c(=O)c3s2)cc1C#N [Example 548]
measurement kind: pIC50
experimental value: 8.12

Now consider the entry below.
Form: compound = Cn1c(C(F)(F)F)nc2cncc(-n3c(=O)c4sc(-c5ccc(F)cc5Cl)cc4n(CCC#N)c3=O)c21 [Example 857] ; pIC50 = 6.79
